System: Matrix metalloproteinase-16 (Homo sapiens) | Read-out: pIC50
pIC50: −log10 of the molar value.
measurement_type: pIC50

Recorded pIC50, per entry:
>  <compound>
COc1ccc(S(=O)(=O)N(CC(=O)NO)CC(=O)NCCc2ccc(S(N)(=O)=O)cc2)cc1

>  <pIC50>
7.36

$$$$
>  <compound>
COc1ccc(S(=O)(=O)N(Cc2cccnc2)[C@@H](C(=O)NO)C(C)C)cc1 [CGS-27023A]

>  <pIC50>
8.17

$$$$

P. CC(C)[C@H](C(=O)NO)N(CC(=O)NCCc1ccc(S(N)(=O)=O)cc1)S(=O)(=O)c1ccc(Oc2ccccc2)cc1
Q. CC(C)[C@H](C(=O)NO)N(CC(=O)O)S(=O)(=O)c1ccc(Oc2ccccc2)cc1
Choose between P and Q : whose measured pIC50 value is numerically larger? State the label of the item chosen.
P
(P: 9.51, Q: 8.81)
